Taken from the supplement of paper PMC7125110.

Documented self-cleavage kobs at 10000 uM GlcN6P across a set of variants
B1: glmS ribozyme (parent)
chain: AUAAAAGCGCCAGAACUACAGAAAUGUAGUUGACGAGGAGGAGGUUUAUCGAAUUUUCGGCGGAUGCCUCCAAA

variants of: B1; experiment: self-cleavage kobs at 10000 uM GlcN6P; higher = faster cleavage; RNA array; conditions: with glucosamine-6-phosphate
This sample holds only a part of the variants without activity.

changes	quantity unit	prefix operator	self-cleavage kobs at 10000 uM GlcN6P
C16A A36C G51A A53U U69G	s⁻¹	=	4.91e-05
G29A A33U	s⁻¹	=	3.01e-05
G9U C68U C70U	s⁻¹	<	1e-05
A12G C67G	s⁻¹	=	0.000273
U46C U56A	s⁻¹	=	0.00098
C8A G44A U46G C70G	s⁻¹	<	1e-05
U30G U45A C71G	s⁻¹	=	0.000315
A14C U31C	s⁻¹	=	0.00399
C11A U31C U45A	s⁻¹	=	4.34e-05
A12G G43C U45C C61G	s⁻¹	<	1e-05
A12U U65G C70A	s⁻¹	=	0.000122
G7U C58G C68G	s⁻¹	=	0.000116
U47A A53U	s⁻¹	=	0.0124
A33G U57G	s⁻¹	<	1e-05
A53G C61G C70U	s⁻¹	<	1e-05
G13A U46G A48G G59A	s⁻¹	<	1e-05
U31C U65C	s⁻¹	=	4.78e-05
A14G G59A	s⁻¹	=	0.000239
G9C C11G G40A	s⁻¹	<	1e-05
A15G U46A	s⁻¹	=	0.00382
G29C U31A	s⁻¹	=	0.000731
C34G A53U G63U A64G	s⁻¹	<	1e-05
A52U U57A C67U	s⁻¹	=	0.000894
A39C G60C	s⁻¹	<	1e-05
G37C A42G	s⁻¹	=	5.87e-05
U2G U47C	s⁻¹	=	0.00421
A12G A53G	s⁻¹	=	0.00114
G29A U47A	s⁻¹	=	0.00308
G32A G44C C67U	s⁻¹	=	0.00011
G9A U57G C67U	s⁻¹	<	1e-05
G29A C58G	s⁻¹	=	6.15e-05
G9C C34U	s⁻¹	<	1e-05
C58U C67U	s⁻¹	=	2.01e-05
G41C U54G	s⁻¹	=	0.000363
G38A G60U	s⁻¹	<	1e-05
G35C A42G U45G	s⁻¹	<	1e-05
C10A G13U G37U G60A U65A	s⁻¹	<	1e-05
A12C C68G	s⁻¹	=	2.93e-05
U55G C70A	s⁻¹	=	0.000131
G21U U46A	s⁻¹	=	0.00269
G44C C70G	s⁻¹	<	1e-05
A39U C68G	s⁻¹	=	0.000127
A39U U46C	s⁻¹	=	0.00883
G13C U65A	s⁻¹	<	1e-05
U54G C71G	s⁻¹	=	0.0011
C10G C11G U55C G60A	s⁻¹	<	1e-05
